Listed below: composite z-score values for each entry.
Experiment: binders of probe aFGF2 on microarray, primary screen, stem cell growth factor project, biochemical, small-molecule microarray, fluorescence 635/667 (AID 1067);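 also: measures binding of biotinylated aFGF2 protein to printed compounds on slides; z-score merges feature fluorescence and signal-to-noise across triplicate slides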
Settings: higher = more signal
Reported Metric: composite z-score

COC(=O)CC=C[C@@H](C)[C@@H](C=NOC[C@H]1O[C@H](c2ccccc2)C=C[C@@H]1Oc1ccc(OC)cc1)NS(=O)(=O)c1ccc(C)cc1	-0.127
CCCCC#C[C@@H]1C=C[C@H](OC(C)=O)[C@@H](COC(C)=O)O1	-0.112
CC(C)C[C@H](NC(=O)CCC1CC(OC(=O)NCc2cccc3ccccc23)CC2(CCCC(COC(=O)NCc3ccccc3)O2)O1)C(=O)NCC(c1ccccc1)c1ccccc1 (some centres not stated)	-0.113
O=C(C=Cc1ccc2c(c1)OCO2)c1ccc(F)cc1	0.0173
COc1ccc(O[C@H]2C=C[C@@H](c3ccccc3)O[C@@H]2COC(=O)CCC(C)=NO[C@@H]2O[C@H](COC(C)=O)[C@@H](OC(C)=O)[C@H](OC(C)=O)[C@H]2OC(C)=O)cc1	-0.152
CO[C@H]1COC(=O)CCC[C@@H](C)[C@H](OC)COC(=O)[C@@H](C)NC(=O)CC=C[C@@H]1C	-0.235
CCOC(=O)[C@H](CC(C)C)NC(=O)CCC1CC(OC(=O)NCc2cccc3ccccc23)CC2(CCCC(COC(=O)NCC3CCCCC3)O2)O1 (some centres not stated)	-0.0744

###

Assay: basal RPMI8226 mitochondrial membrane potential changes, profiling panel, cell-based, JC-1 fluorescence, 24 h, 100 nL compound (AID 1169); also: test concentration not given here
Conditions: RPMI8226 myeloma, JC-1 mitochondrial potential fluorescence, higher = more signal
Reported Metric: z-score

COC(=O)[C@@H]1CC[C@H](C)[C@@H](c2ccc(C)cc2)N1C(=O)c1ccc(C=NOC[C@@H](C)[C@H](OCc2ccccc2)C(C)C)cc1	-0.998
COc1ccc(COC(=O)NN=C2C[C@@H](O)[C@@H](O)[C@@H]3[C@@H]4C(=O)N(c5ccc(F)cc5F)C(=O)[C@@H]4CC[C@H]23)cc1	-0.112
CCOC(=O)[C@H](Cc1ccccc1)NC(=O)CCC1CC(OC(=O)NCCc2ccc(F)cc2)CC2(CCCC(COC(=O)NCCOC)O2)O1 (some centres undefined)	-0.326
C=CC[C@@H]1C=C[C@H](ON=C(C)CCC(=O)OC[C@H]2O[C@H](c3ccccc3)C=C[C@@H]2Oc2ccc(OC)cc2)[C@@H](CO)O1	0.0738
CCOC(=O)NN=C1C[C@@H](O)[C@@H](O)[C@@H]2[C@@H]3C(=O)N(Cc4ccc5c(c4)OCO5)C(=O)[C@@H]3CC[C@H]12	0.386
COc1ccc(COC(=O)NN=C2C[C@@H](O)[C@@H](O)[C@@H]3[C@@H]4C(=O)N(c5cccc(Oc6ccccc6)c5)C(=O)[C@@H]4CC[C@@H]23)cc1	0.587
C#CCCCON=C1C[C@@H](O)[C@@H](O)[C@@H]2[C@@H]3C(=O)N(c4ccc(F)cc4F)C(=O)[C@@H]3CC[C@@H]12	0.0995
C=CC[C@@H]1C=C[C@H](ON=C[C@@H](C)[C@H](OCc2ccccc2)C(C)C)[C@@H](CO)O1	-0.419
O=C1C2=CC[C@H]3C(=O)N(c4cccc(Oc5ccccc5)c4)C(=O)[C@H]3[C@H]2[C@H](O)[C@@H]2O[C@H]12	-1.05
CCOC(=O)[C@H](CC(C)C)NC(=O)CCC1CC(OC(=O)NCc2cccc3ccccc23)CC2(CCCC(COC(=O)NCc3cccc(C(F)(F)F)c3)O2)O1 (some centres undefined)	0.0118
Cc1ccc(S(=O)(=O)n2c3ccccc3c3nnc(C(=O)c4ccccc4)nc32)cc1	-0.248
CO[C@H]1COC(=O)CC=C[C@H](C)[C@@H](OC)COC(=O)[C@@H](C)COC(=O)CC=C[C@@H]1C	-0.296
CCOC(=O)[C@H](Cc1ccccc1)NC(=O)CCC1CC(OC(=O)NCCc2ccc(F)cc2)CC2(CCCC(COC(=O)NCc3ccccc3)O2)O1 (some centres undefined)	-0.191
COc1ccc(O[C@@H]2[C@H](O)CO[C@H]2C=Cc2ccccc2)cc1	0.868
